Source listed as PubChem BioAssay (NCI).

# Tested on: M14 melanoma
# ASSAY_REMARKS: NCI tumour cell line growth inhibition, 48 h; in the data active = GI50 below about 0.43 µM; inactive = the rest
Outcomes: label 1 for active, label 0 for inactive

# COMPOUND, QUALITATIVE_LABEL
measured = [
    ("COc1cc2c(cc1Nc1nc(Nc3ccsc3C(N)=O)c3cc[nH]c3n1)N(C(=O)CN(C)C)CCC2", "label 0"),
    ("COC(=O)[C@@H](C)C[C@H](Cc1ccccc1)NC(=O)c1cccc([C@@H](C[C@H](C(C)C)N(C)C(=O)[C@@H](NC(=O)[C@H]2CCCCN2C)C(C)C)OC(C)=O)n1", "label 1"),
    ("COc1c(C)cnc(Cn2cnc3c(Cl)nc(N)nc32)c1C", "label 0"),
    ("Oc1c(Br)cc(Br)c2cccnc12", "label 0"),
    ("CN(C)CCCn1c2c(c3ccncc3c1=O)C(=O)c1ccccc1-2", "label 0"),
    ("COc1cc2c(c(OC)c1OC)-c1c(c3ccc([N+](=O)[O-])cc3c(=O)n1CCCN=[N+]=[N-])C2=O", "label 0"),
    ("Cc1cccc(NC(=O)c2sc3nc4c(cc3c2N)CCC4)c1C", "label 1"),
    ("Cc1cc(N2CCOCC2)nc(N(CCNc2ccnc3cc(Cl)ccc23)Cc2cccs2)n1", "label 0"),
    ("COc1ccc(N2CCN(CC(=O)N3CCN(c4nnc(-c5ccc(Cl)cc5)c(-c5ccc(Cl)cc5)n4)CC3)CC2)cc1", "label 0"),
    ("Cn1cc(C2=C(c3cn(CCCSC(=N)N)c4ccccc34)C(=O)NC2=O)c2ccccc21", "label 0"),
    ("Cc1ccc(S(=O)(=O)NC(CCCCN)C(=O)CCl)cc1 (stereo unspecified)", "label 0"),
    ("COc1cc(C2C3=C(COC3=O)N(CCO)c3cc4c(cc32)CCC4)cc(OC)c1OC (stereo unspecified)", "label 1"),
    ("CCN(CC)CCCC(C)NC(=S)N/N=C(\\C)c1ccccn1 (stereo unspecified)", "label 0"),
    ("NCCN.O=N[O-].O=N[O-].O=N[O-].O=N[O-].[Co+3].[K+]", "label 0"),
    ("COc1ccc(C(=O)CC(Cl)=C(Cl)Cl)cc1", "label 0"),
    ("CCCCCCCCCCCCOC1C(C(COC2OC(C(O)CO)C3OC(C)(C)OC23)OC(=O)Nc2ccc([N+](=O)[O-])cc2)OC2OC(C)(C)OC21 (stereo unspecified)", "label 0"),
]
